Target: BRM (Homo sapiens)
Construct: made in house; host or cells: High Five insect cells
Sequence (P51531 whole entry): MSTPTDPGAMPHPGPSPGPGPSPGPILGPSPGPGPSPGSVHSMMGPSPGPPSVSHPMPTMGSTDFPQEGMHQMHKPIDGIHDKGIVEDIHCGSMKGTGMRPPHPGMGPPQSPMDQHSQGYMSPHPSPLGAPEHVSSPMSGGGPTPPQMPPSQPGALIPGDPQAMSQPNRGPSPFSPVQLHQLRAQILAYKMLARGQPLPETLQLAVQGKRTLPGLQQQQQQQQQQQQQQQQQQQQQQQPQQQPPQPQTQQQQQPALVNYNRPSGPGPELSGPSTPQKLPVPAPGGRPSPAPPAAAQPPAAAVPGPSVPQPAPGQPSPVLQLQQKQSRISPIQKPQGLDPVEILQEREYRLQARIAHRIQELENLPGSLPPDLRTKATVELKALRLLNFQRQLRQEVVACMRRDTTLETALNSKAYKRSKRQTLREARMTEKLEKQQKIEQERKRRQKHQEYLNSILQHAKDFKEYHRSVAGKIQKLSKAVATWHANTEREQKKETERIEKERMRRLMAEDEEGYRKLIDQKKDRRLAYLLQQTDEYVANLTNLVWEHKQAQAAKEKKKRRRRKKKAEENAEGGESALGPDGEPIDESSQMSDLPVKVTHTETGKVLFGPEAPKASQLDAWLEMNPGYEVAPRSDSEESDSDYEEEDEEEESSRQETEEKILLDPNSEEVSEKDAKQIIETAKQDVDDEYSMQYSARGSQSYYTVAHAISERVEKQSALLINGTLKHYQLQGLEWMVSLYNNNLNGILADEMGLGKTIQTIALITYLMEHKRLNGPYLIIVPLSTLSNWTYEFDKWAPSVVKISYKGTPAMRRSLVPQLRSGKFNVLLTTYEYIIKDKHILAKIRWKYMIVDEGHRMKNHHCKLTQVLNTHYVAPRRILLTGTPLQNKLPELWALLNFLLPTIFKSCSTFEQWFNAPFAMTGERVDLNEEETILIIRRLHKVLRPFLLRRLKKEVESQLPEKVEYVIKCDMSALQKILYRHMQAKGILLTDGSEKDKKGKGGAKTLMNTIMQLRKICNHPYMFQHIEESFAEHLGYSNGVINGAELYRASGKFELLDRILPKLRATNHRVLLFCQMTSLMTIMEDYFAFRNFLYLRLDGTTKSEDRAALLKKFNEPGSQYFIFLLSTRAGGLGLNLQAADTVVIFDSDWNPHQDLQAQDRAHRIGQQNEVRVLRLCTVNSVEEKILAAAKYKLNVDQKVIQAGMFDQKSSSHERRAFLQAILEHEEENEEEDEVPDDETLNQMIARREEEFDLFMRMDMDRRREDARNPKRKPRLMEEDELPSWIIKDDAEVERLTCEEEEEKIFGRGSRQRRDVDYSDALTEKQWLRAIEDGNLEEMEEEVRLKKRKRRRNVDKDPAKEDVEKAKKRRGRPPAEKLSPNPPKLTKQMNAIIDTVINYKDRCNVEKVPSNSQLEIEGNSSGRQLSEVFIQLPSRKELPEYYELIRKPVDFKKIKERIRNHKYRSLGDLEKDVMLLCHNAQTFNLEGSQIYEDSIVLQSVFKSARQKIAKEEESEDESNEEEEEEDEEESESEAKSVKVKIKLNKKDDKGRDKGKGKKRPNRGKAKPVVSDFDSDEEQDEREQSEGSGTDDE
Assay: ATPase catalytic activity assay (ADP-Glo), BRM
Format: biochemical
Conditions: 30 nM BRM, 400 μM ATP
Result type: BRM Max % Inhibition

Could you tell me which BRM Max % Inhibition is on file for Cc1cc(-c2cccc(-c3csc(NC(=O)CNC(=O)c4cn(S(C)(=O)=O)c5c4CCCC5)n3)c2)cc(C)n1 ? >95%

Also need CS(=O)(=O)n1cc(C(=O)NCC(=O)Nc2nc(-c3cccc(-c4ccncc4)c3)cs2)c2ccccc21 , thanks. >70%

Continue with CS(=O)(=O)n1cc(C(=O)NCC(=O)Nc2nc(-c3cccc(N4CCC(O)CC4)c3)cs2)c2ccccc21 >80%

Param item: CS(=O)(=O)n1cc(C(=O)NCC(=O)Nc2nc(-c3cccc(-c4ccncc4)c3)cs2)c2c1CCCC2 >60%
